- experiment: Urinary excretion of phenolic metabolites after intake of the GCPE nutraceutical
- condition-parameters: urine; week 0; mean ± SEM, n = 9
Listed next: entries and their corresponding Cumulative urinary excretion, Total 0–24 h.
The answer is to be given in µmol; state only the numeric part.

Consider the reported Cumulative urinary excretion, Total 0–24 h for these compounds:
>  <compound>
O=C(O)/C=C/c1ccc(O)c(OS(=O)(=O)O)c1 [CA-3′-sulfate, 4′Hydroxycinnamic acid-3′-sulfate]

>  <number>
3.7

$$$$
>  <compound>
O=C(O)CNC(=O)c1cccc(O)c1 [3′-Hydroxyhippuric acid]

>  <number>
32

$$$$
>  <compound>
O=C(O)c1ccc(O)cc1 [4-Hydroxybenzoic acid]

>  <number>
1.3

$$$$
>  <compound>
O=C(O)CCc1ccc(O)c(OS(=O)(=O)O)c1 [DHCA-3′-sulfate]

>  <number>
9

$$$$
>  <compound>
COc1ccc(CCC(=O)O)cc1O[C@@H]1O[C@H](C(=O)O)[C@@H](O)[C@H](O)[C@H]1O [DHiFA-3′-glucuronide]

>  <number>
2.9

$$$$

Name the recorded Cumulative urinary excretion, Total 0–24 h for O=C(/C=C/c1ccc(O)c(O)c1)OC1[C@H](O)CC(O)(C(=O)O)C[C@H]1O (stereo partly shown) . 0.13

Name the recorded Cumulative urinary excretion, Total 0–24 h for COc1cc(/C=C/C(=O)NCC(=O)O)ccc1O . 19

Name the recorded Cumulative urinary excretion, Total 0–24 h for O=C(/C=C/c1ccc(O)c(O)c1)O[C@@H]1C[C@](O)(C(=O)O)C[C@@H](O)[C@H]1O . 0.21

Name the recorded Cumulative urinary excretion, Total 0–24 h for COc1cc(CCC(=O)O)ccc1O[C@@H]1O[C@H](C(=O)O)[C@@H](O)[C@H](O)[C@H]1O [DHFA-4′-glucuronide] . 5

Name the recorded Cumulative urinary excretion, Total 0–24 h for O=C(O)CCc1ccc(OS(=O)(=O)O)cc1 [DHCoA-4′-sulfate, 3-(Phenyl)propanoic acid-4′-sulfate] . 21

----------
- experiment: Urinary excretion of phenolic metabolites after intake of the GCPE nutraceutical
- condition-parameters: urine; week 0; mean ± SEM, n = 9
Listed next: entries and their corresponding Cumulative urinary excretion, Total 0–24 h.
The answer is to be given in µmol; state only the numeric part.

Consider the reported Cumulative urinary excretion, Total 0–24 h for these compounds:
>  <compound>
COc1ccc(C=CC(=O)O)cc1O[C@@H]1O[C@H](C(=O)O)[C@@H](O)[C@H](O)[C@H]1O [iFA-3′-glucuronide, 4′-Methoxycinnamic acid-3′-glucuronide]

>  <unit-string>
µmol

>  <number>
4.4

$$$$
>  <compound>
O=C(O)CCc1ccc(O[C@@H]2O[C@H](C(=O)O)[C@@H](O)[C@H](O)[C@H]2O)cc1 [DHCoA-4′-glucuronide, 3-(Phenyl)propanoic acid-4′-glucuronide]

>  <unit-string>
µmol

>  <number>
2.1

$$$$
>  <compound>
COc1cc(CCC(=O)O)ccc1OS(=O)(=O)O [DHFA-4′-sulfate]

>  <unit-string>
µmol

>  <number>
10

$$$$
>  <compound>
O=C(O)Cc1ccc(O)c(O)c1 [3′,4′-Dihydroxyphenylacetic acid]

>  <unit-string>
µmol

>  <number>
1.2

$$$$
>  <compound>
O=C(O)CCc1ccc(O)c(O)c1 [DHCA, 3-(3′,4′-Dihydroxyphenyl)propanoic acid]

>  <unit-string>
µmol

>  <number>
16

$$$$
>  <compound>
O=C(O)CNC(=O)c1ccc(O)cc1 [4′-Hydroxyhippuric acid]

>  <unit-string>
µmol

>  <number>
14

$$$$
>  <compound>
COc1cc(C=CC(=O)O)ccc1OC1OC(C(=O)O)C(O)C(O)C1O (stereo not shown) [FA-4′-glucuronide, 3′-Methoxycinnamic acid-4′-glucuronide]

>  <unit-string>
µmol

>  <number>
3.4

$$$$
>  <compound>
O=C(CCc1ccc(O)c(O)c1)OC1C(O)CC(O)(C(=O)O)CC1O (stereo not shown) [4-Dihydrocaffeoylquinic acid]

>  <unit-string>
µmol

>  <number>
0.06

$$$$

Name the recorded Cumulative urinary excretion, Total 0–24 h for O=C(CCc1ccc(O)c(O)c1)OC1CC(O)(C(=O)O)CC(O)C1O (stereo not shown) [3-Dihydrocaffeoylquinic acid] . 0.35

Name the recorded Cumulative urinary excretion, Total 0–24 h for COc1cc(CC(=O)O)ccc1O [4′-Hydroxy-3′-methoxyphenylacetic acid] . 13.2

Name the recorded Cumulative urinary excretion, Total 0–24 h for O=C(O)/C=C/c1ccc(O)c(O)c1 [CA, 3′,4′-Dihydroxycinnamic acid] . 0.42

Name the recorded Cumulative urinary excretion, Total 0–24 h for COc1cc(CCC(=O)OC2C(O)CC(O)(C(=O)O)CC2O)ccc1O (stereo not shown) [4-Dihydroferuloylquinic acid] . 0.06

----------
- experiment: Plasma pharmacokinetics of phenolic metabolites after intake of the GCPE nutraceutical (LC-MS-QToF)
- condition-parameters: human, oral, 300 mg phenols, AUC0–24h, week 0
parameter: AUC(0-t)

Name the recorded AUC(0-t) for COc1ccc(/C=C/C(=O)O)cc1O [iFA, 3′-Hydroxy-4′-methoxycinnamic acid] . 0.025 µM·h

----------
- experiment: Urinary excretion of phenolic metabolites after intake of the GCPE nutraceutical
- condition-parameters: week 0, interval 0–3 h
parameter: Amount excreted in urine, 0- 3 h (µmol)
The answer is to be given in µmol; state only the numeric part.

Consider the reported Amount excreted in urine, 0- 3 h for these compounds:
>  <compound>
O=C(O)CCc1ccc(OS(=O)(=O)O)cc1 [DHCoA-4′-sulfate, 3-(Phenyl)propanoic acid-4′-sulfate]

>  <number>
0.9

$$$$
>  <compound>
O=C(/C=C/c1ccc(O)c(O)c1)O[C@@H]1C[C@@](O)(C(=O)O)C[C@@H](O)[C@@H]1O

>  <number>
0.18

$$$$

Okay, next one:
Name the recorded Amount excreted in urine, 0- 3 h for COc1ccc(C=CC(=O)O)cc1O[C@@H]1O[C@H](C(=O)O)[C@@H](O)[C@H](O)[C@H]1O [iFA-3′-glucuronide, 4′-Methoxycinnamic acid-3′-glucuronide] . 0.9

----------
- experiment: Urinary excretion of phenolic metabolites after intake of the GCPE nutraceutical
- condition-parameters: week 0, interval 11–24 h
Amount excreted in urine, 11-24 h vs 0.3 µmol: less than gives 1; not less than gives 0.

Here's what some known entries look like.
>  <compound>
COc1cc(C=CC(=O)O)ccc1OC1OC(C(=O)O)C(O)C(O)C1O (stereo not shown) [FA-4′-glucuronide, 3′-Methoxycinnamic acid-4′-glucuronide]

>  <answer-label>
0

$$$$
>  <compound>
O=C(O)Cc1ccc(O)c(O)c1 [3′,4′-Dihydroxyphenylacetic acid]

>  <answer-label>
0

$$$$
>  <compound>
O=C(O)Cc1cccc(O)c1 [3′-Hydroxyphenylacetic acid]

>  <answer-label>
0

$$$$
>  <compound>
COc1cc(C=CC(=O)O)ccc1OS(=O)(=O)O [FA-4′-sulfate, 3′-Methoxycinnamic acid-4′-sulfate]

>  <answer-label>
0

$$$$
>  <compound>
COc1cc(CCC(=O)O)ccc1O

>  <answer-label>
1

$$$$

Strictly below 0.3 µmol in Amount excreted in urine, 11-24 h? COc1ccc(/C=C/C(=O)O)cc1O [iFA, 3′-Hydroxy-4′-methoxycinnamic acid] 1

Strictly below 0.3 µmol in Amount excreted in urine, 11-24 h? COc1ccc(CCC(=O)O)cc1OC [Dihydrodimethoxycinnamic acid, 3-(3′,4′-Dimethoxyphenyl)propanoic acid] 1

----------
Listed next: entries and their corresponding Tmax (h) or Range.
- experiment: Plasma pharmacokinetics of phenolic metabolites after intake of the GCPE nutraceutical (LC-MS-QToF)
- condition-parameters: week 8, first peak where biphasic
Please report the result as a number followed by the unit.

Consider the reported Tmax (h) or Range for these molecules:
>  <molecule>
O=C(O)CCc1ccc(OS(=O)(=O)O)c(O)c1 [DHCA-4′-sulfate]

>  <Tmax (h) or Range>
8.4 ± 0.6 h

$$$$
>  <molecule>
O=C(O)Cc1ccc(O)cc1 [4′-Hydroxyphenylacetic acid]

>  <Tmax (h) or Range>
0.6 ± 0.1 h

$$$$
>  <molecule>
O=C(O)C=Cc1ccc(OC2OC(C(=O)O)C(O)C(O)C2O)cc1 (stereo not shown) [CoA-4′-glucuronide, Cinnamic acid-4′-glucuronide]

>  <Tmax (h) or Range>
2.1 ± 0.2 h

$$$$

Okay, next one:
Name the recorded Tmax (h) or Range for O=C(O)Cc1cccc(O)c1 [3′-Hydroxyphenylacetic acid] . 5 ± 1 h

----------
- experiment: Urinary excretion of phenolic metabolites after intake of the GCPE nutraceutical
- condition-parameters: week 0, interval 0–3 h
parameter: Amount excreted in urine, 0- 3 h
Please report the result as a number followed by the unit.

Consider the reported Amount excreted in urine, 0- 3 h for these molecules:
>  <molecule>
COc1cc(CC(=O)O)ccc1O [4′-Hydroxy-3′-methoxyphenylacetic acid]

>  <Amount excreted in urine, 0- 3 h>
1.3 µmol

$$$$
>  <molecule>
O=C(O)c1ccc(O)c(O)c1 [3,4-Dihydroxybenzoic acid]

>  <Amount excreted in urine, 0- 3 h>
0.016 µmol

$$$$
>  <molecule>
COc1cc(/C=C/C(=O)O[C@@H]2C[C@@](O)(C(=O)O)C[C@@H](O)[C@@H]2O)ccc1O [5-Feruloylquinic acid]

>  <Amount excreted in urine, 0- 3 h>
0.8 µmol

$$$$

Name the recorded Amount excreted in urine, 0- 3 h for O=C(O)c1ccc(O)cc1 [4-Hydroxybenzoic acid] . 0.3 µmol

Name the recorded Amount excreted in urine, 0- 3 h for O=C(O)CCc1ccc(O)cc1 [DHCoA, 3-(4′-Hydroxyphenyl)propanoic acid] . 0.16 µmol

Name the recorded Amount excreted in urine, 0- 3 h for O=C(O)CNC(=O)c1cccc(O)c1 [3′-Hydroxyhippuric acid] . 3 µmol

Name the recorded Amount excreted in urine, 0- 3 h for O=C(/C=C/c1ccc(O)c(O)c1)O[C@@H]1C[C@](O)(C(=O)O)C[C@@H](O)[C@H]1O [3-Caffeoylquinic acid] . 0.11 µmol

Name the recorded Amount excreted in urine, 0- 3 h for O=C(O)CCc1ccc(O)c(O)c1 [DHCA, 3-(3′,4′-Dihydroxyphenyl)propanoic acid] . 0.5 µmol

Name the recorded Amount excreted in urine, 0- 3 h for COc1ccc(CCC(=O)O)cc1OS(=O)(=O)O [DHiFA-3′-sulfate] . 0.18 µmol
